biological target: Neuropeptide Y receptor type 5 (Homo sapiens, UniProt Q15761)
Sequence (Q15761 whole entry): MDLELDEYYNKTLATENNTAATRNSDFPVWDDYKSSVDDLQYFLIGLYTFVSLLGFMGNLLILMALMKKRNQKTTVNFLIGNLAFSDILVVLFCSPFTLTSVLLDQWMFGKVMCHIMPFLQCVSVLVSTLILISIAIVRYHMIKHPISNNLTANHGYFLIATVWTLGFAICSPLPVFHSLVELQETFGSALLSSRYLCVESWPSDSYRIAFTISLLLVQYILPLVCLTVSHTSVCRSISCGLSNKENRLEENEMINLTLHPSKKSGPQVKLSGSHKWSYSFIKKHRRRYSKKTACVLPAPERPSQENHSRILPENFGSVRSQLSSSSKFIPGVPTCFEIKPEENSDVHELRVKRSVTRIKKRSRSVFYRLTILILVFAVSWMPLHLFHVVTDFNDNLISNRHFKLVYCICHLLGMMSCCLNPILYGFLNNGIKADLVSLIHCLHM
For each record, check the reported IC50: if it is below 60 nM write YES, else write NO.

// below: answered molecules
Cc1nc(N2CCN(S(C)(=O)=O)CC2)c2[nH]c(-c3ccccc3)cc2n1 ... NO
Cc1nc(N2CCCCC2)c2[nH]c(-c3ccc(C(F)(F)F)cc3)cc2n1 ... YES
Cc1nc(N2CCCCC2)c2[nH]c(-c3cc(F)c(F)c(F)c3)cc2n1 ... YES
Cc1nc(N2CCC2)c2[nH]c(-c3ccccc3)cc2n1 ... YES
CCN(CC)c1[nH]c(C)nc2cc(-c3ccccc3)nc1-2 ... YES
Cc1nc(N2CCCCC2)c2[nH]c(-c3cc4ccccc4s3)cc2n1 ... NO

Problem: Please state whether IC50 is below 60 nM for CCCc1nc(N2CCCCC2)c2[nH]c(-c3ccccc3)cc2n1
Solution: YES

Problem: Please state whether IC50 is below 60 nM for CSc1nc(N2CCCCC2)c2[nH]c(-c3ccccc3)cc2n1
Solution: NO

Problem: Please state whether IC50 is below 60 nM for Cc1nc(N2CCCCC2)c2[nH]c(-c3cccc(Cl)c3)cc2n1
Solution: YES

Problem: Please state whether IC50 is below 60 nM for CCCc1cc2[nH]c(C)nc(N3CCCCC3)c-2n1
Solution: NO

Problem: Please state whether IC50 is below 60 nM for Cc1nc(N2CCCCC2)c2[nH]c(C34C[C@H]5C[C@@H](C3)C[C@@H](C4)C5)cc2n1
Solution: YES

Problem: Please state whether IC50 is below 60 nM for Cc1nc2cc(-c3ccccc3)nc-2c(N2CCCCC2C)[nH]1 (stereo not drawn)
Solution: YES

Problem: Please state whether IC50 is below 60 nM for Cc1nc(N2CCCCC2)c2[nH]c(-c3ccc(F)c(F)c3)cc2n1
Solution: YES

Problem: Please state whether IC50 is below 60 nM for Cc1nc(N)c2[nH]c(-c3ccccc3)cc2n1
Solution: NO

Problem: Please state whether IC50 is below 60 nM for Cc1nc2cc(-c3ccccc3)nc-2c(NCc2ccc(C)o2)[nH]1
Solution: NO

Problem: Please state whether IC50 is below 60 nM for c1ccc(-c2cc3nc(N4CCCCC4)nc(N4CCCCC4)c3[nH]2)cc1
Solution: NO

Problem: Please state whether IC50 is below 60 nM for CCc1c(-c2ccccc2)[nH]c2c(N3CCCCC3)nc(C)nc12
Solution: NO

Problem: Please state whether IC50 is below 60 nM for c1ccc(-c2cc3nc[nH]c(N4CCCCC4)c-3n2)cc1
Solution: NO

Problem: Please state whether IC50 is below 60 nM for Cc1nc(-c2ccsc2)c2[nH]c(-c3ccccc3)cc2n1
Solution: NO

Problem: Please state whether IC50 is below 60 nM for Cc1nc(N2CCOCC2)c2[nH]c(-c3ccccc3)cc2n1
Solution: NO

Problem: Please state whether IC50 is below 60 nM for Cc1nc(N2CCc3ccccc3C2)c2[nH]c(-c3ccccc3)cc2n1
Solution: NO

Problem: Please state whether IC50 is below 60 nM for Cc1nc(N2CCCCC2)c2[nH]c(-c3ccc(F)cc3)cc2n1
Solution: YES

Problem: Please state whether IC50 is below 60 nM for Cc1nc(N2CC=CC2)c2[nH]c(-c3ccccc3)cc2n1
Solution: YES
